Values compiled from paper PMC10115881.

Assayed System: T1, purified VPS4B (Vacuolar Protein Sorting 4) (UniProt O75351 1-444)
T1 construct: VPS4B expressed as a His-tagged Sumo construct in a pRSet B vector; The results speak of 'VPS4'; VPS4B is the only VPS4 protein whose purification is described; source: E. coli Overexpress C41, purified (Ni-NTA)
T1 sequence (looked up): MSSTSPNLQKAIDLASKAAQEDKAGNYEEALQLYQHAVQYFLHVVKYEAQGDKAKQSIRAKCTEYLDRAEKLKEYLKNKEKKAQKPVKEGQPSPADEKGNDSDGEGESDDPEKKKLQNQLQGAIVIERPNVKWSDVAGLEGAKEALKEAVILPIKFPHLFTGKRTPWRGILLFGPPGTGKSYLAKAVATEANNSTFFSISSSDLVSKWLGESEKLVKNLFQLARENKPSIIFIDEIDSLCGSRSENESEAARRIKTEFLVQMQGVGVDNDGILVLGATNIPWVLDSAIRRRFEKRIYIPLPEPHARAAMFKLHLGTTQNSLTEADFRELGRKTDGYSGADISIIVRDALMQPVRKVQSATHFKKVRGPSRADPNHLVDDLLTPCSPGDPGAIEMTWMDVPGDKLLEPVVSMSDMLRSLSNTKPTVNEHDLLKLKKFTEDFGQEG
Protocol Notes: not stated; 'our affinity measurements' of PDpep1.3 with VPS4 (Fig. S1G)
Study Conditions: both partners purified
No end group written: not given here. *: point of attachment. FITC = O=C1OC2(c3ccc(O)cc3Oc3cc(O)ccc32)c2ccc(NC(=S)*)cc21
Readout Name: Kd

q: Quick one: Kd for {FITC}-DEEIERQLKALG (stretch of the C-terminal region (MIM) of CHMP2B; also called FITC-PDpep1.3; source: synthetic peptide (LifeTein)) [FITC-labeled PDpep1.3 peptide] ?
a: > 100 µM
